Hello, the source for this data is PubChem BioAssay AID602296, in case you need it.

MEASUREMENT PROTOCOL: HSF-1 reporter activators over prolonged exposure, confirmation, cell-based, mouse, luciferase, cherry-pick, dose (AID 602296);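 note: test compounds applied by themselves with no MG132 co-treatment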
SETTINGS: NIH3T3-HGL HSF-1 response element luciferase, 48 h; series mostly up to 26 µM
The campaign covered roughly 2,000 compounds. About 190 (9.5%) were called active. About 14% were inconclusive and are not listed. Not all results are given here.
MEASUREMENT TYPE: outcome

CC(NC(=O)c1ccc(C(C)(C)C)cc1)C(c1cccs1)N1CCOCC1 (configuration not stated) = inactive
Cc1ccc(S(=O)(=O)N(C)c2ccc(C)c([N+](=O)[O-])c2)cc1 = inactive
O=C(c1ccc(Br)cc1)N1CCCC(c2nc(-c3cccs3)no2)C1 (configuration not stated) = inactive
CC12CCC(=O)N1C(C(=O)Nc1cccc3ccccc13)CS2 (configuration not stated) = inactive
Clc1ccc(CSc2nnc(-c3sccc3-n3cccc3)o2)cc1 = inactive
CCOc1cc(/C=C2/C(=O)ON=C2C)ccc1OCc1ccc(F)cc1 = inactive
OCC1(Cc2cccc(C(F)(F)F)c2)CCN(Cc2cc3ccccc3o2)CC1 = inactive
S=c1nc(SCc2ccccc2)[nH]c2ccccc12 = inactive
Cc1cc(C(=O)N/N=C/c2ccc([N+](=O)[O-])s2)c2ccccc2n1 = inactive
CN(c1cccc(NC(=O)CN(c2cccc(Cl)c2)S(=O)(=O)c2ccc(Cl)cc2)c1)S(C)(=O)=O = inactive
CCCCCCCCCCCC(=O)c1c(O)cccc1O = inactive
COc1ccc(N2C(=O)CC(Sc3nnnn3-c3ccc(F)cc3)C2=O)cc1 (configuration not stated) = inactive
Cc1c(-n2cc(C(=O)c3ccccc3O)cc(C#N)c2=O)c(=O)n(-c2ccccc2)n1C = inactive
COCCCNC(=O)c1c[nH]c2ccc(S(=O)(=O)N3CCc4ccccc43)cc2c1=O = inactive
O=C1[C@@H]2Cc3c([nH]c4ccccc34)C(c3ccc([N+](=O)[O-])cc3)N2C(=O)CN1C1CC1 (some centres not stated) = inactive
COc1ccc(C)cc1NC(=O)CSc1nnc(COc2ccc(Cl)cc2)n1Cc1ccco1 = inactive
Nc1cnn(Cc2ccc(F)cc2)c1 = inactive
CCn1cnc2c1c(=O)n(Cc1nnc3n1-c1ccccc1SC3)c(=O)n2Cc1ccccc1 = inactive
O=C(Nc1cccc(Cl)c1)C1CCCN(S(=O)(=O)c2ccc(F)cc2)C1 (configuration not stated) = inactive
O=C1C2CCCCC2C(=O)N1Cc1ccccc1 (configuration not stated) = inactive
COc1ccc(CNCC(O)COc2ccc(C(C)(C)c3ccccc3)cc2)cc1 (configuration not stated) = inactive
S=C(NCCSCc1ccc(Cl)c(Cl)c1)Nc1ccccc1 = inactive
